Tested on: NCI-H226 lung
method_summary: NCI-60 one-dose screen, 48 h (100 = growth as untreated, 0 = no growth, -100 = all killed)
measurement_setup: 10 µM unless noted
The panel holds about 83,000 compounds, 20% with a hit somewhere; the sample as a whole holds those more often.
measure: growth (%)
Your answer should be a plain number; it is taken to be in %.

Query: Would you kindly share the measured growth for "O=[N+]([O-])c1cc(-c2ccccc2)c(O)c([N+](=O)[O-])c1" ?
Result: 82.5

Query: Please report the recorded growth for "Nc1ccc(-c2ccc(N)c(S(=O)(=O)O)c2)cc1S(=O)(=O)O" .
Result: 119

Query: Return reported growth; argument: "Clc1ccccc1C(c1ccccc1)(c1ccccc1)n1ccnc1"
Result: 29.2

Query: Entry under review: "O=[N+]([O-])C=C(c1ccccc1)c1ccccc1" . Reported growth?
Result: 88.6

Query: Entry "O=C(c1ccccc1)c1cc2ccccc2oc1=O" has what growth?
Result: 86.3

Query: // lookup growth for N#CC1c2ccccc2C=CN1C(=O)CCCl (configuration not stated)
Result: 94.1

Query: Query (molecule): "CC1(O)CCCCCC1" ; field requested: growth
Result: 99.1

Query: What value of growth has been reported for the following molecule? "CCOC(=O)C1=C(C(=O)c2ccccc2)C(c2cccc([N+](=O)[O-])c2)C(C(=O)c2ccccc2)=C(C(=O)OCC)N1"
Result: 84.9

Query: So what does the record say about growth for CCCCCCCCCCCCCCCC[N+]1(C)CCCC1c1cccnc1 (configuration not stated) ?
Result: 41.4

Query: Give its growth value. Item: "Clc1ccc(-n2ncc3c(NCCCN4CCOCC4)ncnc32)cc1"
Result: 91.8

Query: Recorded growth of CCOC(=O)C1(C)CCCC1N (configuration not stated) , please.
Result: 99.1

Query: What measured growth goes with CCOc1ccc(C(C[N+](=O)[O-])Sc2ccccc2N)cc1 (configuration not stated) ?
Result: 78.6
